Test: activity coefficient (dimensionless); of the first substance listed, at infinite dilution; xn = mol fraction of the nth substance listed
Settings: 338.15 K; 101 kPa; Liquid; Chromatography; x1 = 0
Binary call on activity coefficient: t from 20 upward, f beneath that.

input: Hi, just wondering whether CCOC(C)(C)C [2-ethoxy-2-methylpropane] + CCCC[N+]1(C)CCOCC1.N#C[C-](C#N)C#N shows activity coefficient of 20 or higher.
output: f

input: Check this compound for activity coefficient at or above 20: C=CCCCCCCCC [1-decene] + CCCC[N+]1(C)CCOCC1.N#C[C-](C#N)C#N
output: t

input: Determine whether measured activity coefficient meets or exceeds 20 for CC(C)(C)O [2-methylpropan-2-ol] + CCCC[N+]1(C)CCOCC1.N#C[C-](C#N)C#N
output: f

input: Hello, I need to know if CCCCCCCC [octane] + CCCC[N+]1(C)CCOCC1.N#C[C-](C#N)C#N has measured activity coefficient not below 20. Thanks!
output: t

input: Please check the record CC(C)CC(C)(C)C [2,2,4-trimethylpentane] + CCCC[N+]1(C)CCOCC1.N#C[C-](C#N)C#N and state if its activity coefficient is at or above 20.
output: t

input: Test whether the compound CC(C)=O [acetone] + CCCC[N+]1(C)CCOCC1.N#C[C-](C#N)C#N records activity coefficient of 20 or higher.
output: f

input: Kindly determine if activity coefficient recorded for CCCOCCC [dipropyl ether] + CCCC[N+]1(C)CCOCC1.N#C[C-](C#N)C#N is above or exactly 20.
output: f

input: Kindly determine if activity coefficient recorded for C1CCOC1 [tetrahydrofuran] + CCCC[N+]1(C)CCOCC1.N#C[C-](C#N)C#N is above or exactly 20.
output: f

input: Item C1CCCCCCC1 [cyclooctane] + CCCC[N+]1(C)CCOCC1.N#C[C-](C#N)C#N with activity coefficient of 20 or above?
output: t

###

Assay: activity coefficient (dimensionless); of the first substance listed, at infinite dilution; xn = mol fraction of the nth substance listed
Settings: 348.15 K; 101 kPa; Liquid; Chromatography; x1 = 0
Please respond with reported activity coefficient for every item in the list.

input: For the compound c1ccsc1 [thiophene] + CCCC[N+]1(C)CCOCC1.N#C[C-](C#N)C#N , give its reported activity coefficient.
output: 1.08

input: Find the measured activity coefficient of CCC(C)(C)OC [2-methoxy-2-methylbutane] + CCCC[N+]1(C)CCOCC1.N#C[C-](C#N)C#N and report it.
output: 8.37

input: Tell me measured activity coefficient for CCCCCCCCCC [decane] + CCCC[N+]1(C)CCOCC1.N#C[C-](C#N)C#N please.
output: 202

input: Complete the entry with activity coefficient for CCCC(=O)OC [methyl butanoate] + CCCC[N+]1(C)CCOCC1.N#C[C-](C#N)C#N
output: 2.51

input: Provide one value: measured activity coefficient of c1ccncc1 [pyridine] + CCCC[N+]1(C)CCOCC1.N#C[C-](C#N)C#N
output: 0.766

input: // Input: Cc1ccccc1C [1,2-dimethylbenzene] + CCCC[N+]1(C)CCOCC1.N#C[C-](C#N)C#N . Output its activity coefficient only.
output: 3.04

input: Item CO [methanol] + CCCC[N+]1(C)CCOCC1.N#C[C-](C#N)C#N : provide activity coefficient
output: 0.729

input: Respond only with activity coefficient recorded for CCCCC [pentane] + CCCC[N+]1(C)CCOCC1.N#C[C-](C#N)C#N
output: 29.8

input: Supply activity coefficient value. Item: O [water] + CCCC[N+]1(C)CCOCC1.N#C[C-](C#N)C#N
output: 0.86

###

Assay: activity coefficient (dimensionless); of the first substance listed, at infinite dilution; xn = mol fraction of the nth substance listed
Conditions: 338.15 K; 101 kPa; Liquid; Chromatography; x1 = 0
endpoint.name: activity coefficient
# respond with the number and nothing more

input: Let me know recorded activity coefficient for CCCCC [pentane] + CCCC[N+]1(C)CCOCC1.N#C[C-](C#N)C#N , thanks.
output: 32.2

input: Note activity coefficient for the compound shown: C1CCCCC1 [cyclohexane] + CCCC[N+]1(C)CCOCC1.N#C[C-](C#N)C#N
output: 19.3

input: Provide only the value of recorded activity coefficient for C=C(C)c1ccccc1 [(1-methylethenyl)benzene] + CCCC[N+]1(C)CCOCC1.N#C[C-](C#N)C#N
output: 2.99

input: Look up activity coefficient of CCCC(C)=O [pentan-2-one] + CCCC[N+]1(C)CCOCC1.N#C[C-](C#N)C#N and report it.
output: 1.49

input: Quick one: give measured activity coefficient for CCCC(=O)OC [methyl butanoate] + CCCC[N+]1(C)CCOCC1.N#C[C-](C#N)C#N
output: 2.49

input: Supply reported activity coefficient belonging to this compound: C1CCCCCC1 [cycloheptane] + CCCC[N+]1(C)CCOCC1.N#C[C-](C#N)C#N
output: 24

input: Read off the recorded activity coefficient for C#CCCCC [1-hexyne] + CCCC[N+]1(C)CCOCC1.N#C[C-](C#N)C#N
output: 5.5

input: Query activity coefficient for CCC(C)(C)OC [2-methoxy-2-methylbutane] + CCCC[N+]1(C)CCOCC1.N#C[C-](C#N)C#N
output: 8.42

input: Answer with the recorded activity coefficient for the compound listed here: CCC[N+](=O)[O-] [1-nitropropane] + CCCC[N+]1(C)CCOCC1.N#C[C-](C#N)C#N
output: 0.998

input: Input CCc1ccccc1 [ethylbenzene] + CCCC[N+]1(C)CCOCC1.N#C[C-](C#N)C#N , output reported activity coefficient.
output: 3.75

input: Hello, please tell me recorded activity coefficient for this one: CCC(C)O (stereo not drawn) [butan-2-ol] + CCCC[N+]1(C)CCOCC1.N#C[C-](C#N)C#N
output: 1.81

input: Return the recorded activity coefficient value; entry: COC(C)(C)C [2-methoxy-2-methylpropane] + CCCC[N+]1(C)CCOCC1.N#C[C-](C#N)C#N
output: 5.74

input: Fill in activity coefficient for record CCOC(C)=O [ethyl acetate] + CCCC[N+]1(C)CCOCC1.N#C[C-](C#N)C#N
output: 1.92

input: Provide activity coefficient value for the following compound: CCC(=O)CC [pentan-3-one] + CCCC[N+]1(C)CCOCC1.N#C[C-](C#N)C#N
output: 1.47

input: Annotate the compound Cc1ccccc1C [1,2-dimethylbenzene] + CCCC[N+]1(C)CCOCC1.N#C[C-](C#N)C#N with its measured activity coefficient.
output: 3.02

input: Kindly indicate its recorded activity coefficient. Item: COC(C)=O [methyl ethanoate] + CCCC[N+]1(C)CCOCC1.N#C[C-](C#N)C#N
output: 1.24

input: Assign activity coefficient to the following record: C#CCCCCCC [1-octyne] + CCCC[N+]1(C)CCOCC1.N#C[C-](C#N)C#N
output: 12.4

input: // fetch activity coefficient given entry C1CCCC1 [cyclopentane] + CCCC[N+]1(C)CCOCC1.N#C[C-](C#N)C#N
output: 12.8

###

Would you kindly list activity coefficient for each of these compounds?
Assay: activity coefficient (dimensionless); of the first substance listed, at infinite dilution; xn = mol fraction of the nth substance listed
Conditions: 328.15 K; 101 kPa; Liquid; Chromatography; x1 = 0
Enter a number only.

input: Tell us which activity coefficient value is on record for CC(C)CC(C)(C)C [2,2,4-trimethylpentane] + CCCC[N+]1(C)CCOCC1.N#C[C-](C#N)C#N
output: 93.4

input: Tell me activity coefficient reported for CC(C)O [propan-2-ol] + CCCC[N+]1(C)CCOCC1.N#C[C-](C#N)C#N
output: 1.59

input: For C1CCCC1 [cyclopentane] + CCCC[N+]1(C)CCOCC1.N#C[C-](C#N)C#N , write its activity coefficient.
output: 13.7

input: Tell me activity coefficient reported for Cc1ccccc1C [1,2-dimethylbenzene] + CCCC[N+]1(C)CCOCC1.N#C[C-](C#N)C#N
output: 2.99

input: Return reported activity coefficient. Input compound: CCC(C)(C)C [2,2-dimethylbutane] + CCCC[N+]1(C)CCOCC1.N#C[C-](C#N)C#N
output: 49.8

input: Indicate its recorded activity coefficient; the compound in question is CCOC(C)(C)C [2-ethoxy-2-methylpropane] + CCCC[N+]1(C)CCOCC1.N#C[C-](C#N)C#N
output: 16.2

input: Return reported activity coefficient. Input compound: CCC[N+](=O)[O-] [1-nitropropane] + CCCC[N+]1(C)CCOCC1.N#C[C-](C#N)C#N
output: 0.99

input: Provide one value: measured activity coefficient of CC(C)(C)O [2-methylpropan-2-ol] + CCCC[N+]1(C)CCOCC1.N#C[C-](C#N)C#N
output: 1.88

input: Please supply the value of reported activity coefficient for the item CCCOCCC [dipropyl ether] + CCCC[N+]1(C)CCOCC1.N#C[C-](C#N)C#N
output: 15.9

input: Consider the compound CCc1ccccc1 [ethylbenzene] + CCCC[N+]1(C)CCOCC1.N#C[C-](C#N)C#N . State its measured activity coefficient.
output: 3.74

input: Complete the entry with activity coefficient for CC(C)OC(C)C [diisopropyl ether] + CCCC[N+]1(C)CCOCC1.N#C[C-](C#N)C#N
output: 17.4

input: Provide only the value of recorded activity coefficient for CCCCCCCC [octane] + CCCC[N+]1(C)CCOCC1.N#C[C-](C#N)C#N
output: 113

input: For the compound C#CCCC [1-pentyne] + CCCC[N+]1(C)CCOCC1.N#C[C-](C#N)C#N , give its measured activity coefficient value.
output: 3.73

input: Return activity coefficient (reported value) for this compound: C=CCCCC [hex-1-ene] + CCCC[N+]1(C)CCOCC1.N#C[C-](C#N)C#N
output: 21.3

input: Identify activity coefficient associated with the compound Cc1ccc(C)cc1 [1,4-dimethylbenzene] + CCCC[N+]1(C)CCOCC1.N#C[C-](C#N)C#N
output: 3.52

input: Assign activity coefficient to the following record: c1ccccc1 [benzene] + CCCC[N+]1(C)CCOCC1.N#C[C-](C#N)C#N
output: 1.55

input: Write down activity coefficient measured for item C1COCCO1 [1,4-dioxane] + CCCC[N+]1(C)CCOCC1.N#C[C-](C#N)C#N
output: 0.74

input: State, in one line, measured activity coefficient of C1CCCCCC1 [cycloheptane] + CCCC[N+]1(C)CCOCC1.N#C[C-](C#N)C#N
output: 26

input: Answer with reported activity coefficient of C1=CCCCC1 [cyclohexene] + CCCC[N+]1(C)CCOCC1.N#C[C-](C#N)C#N
output: 9.08

input: Please give the documented activity coefficient of CCCCCC [hexane] + CCCC[N+]1(C)CCOCC1.N#C[C-](C#N)C#N
output: 51.1

input: Respond only with activity coefficient recorded for CCC(C)CC [3-methylpentane] + CCCC[N+]1(C)CCOCC1.N#C[C-](C#N)C#N
output: 46

input: Name the recorded activity coefficient of the item CC(C)CO [2-methyl-1-propanol] + CCCC[N+]1(C)CCOCC1.N#C[C-](C#N)C#N in your answer.
output: 2.03

input: Name the recorded activity coefficient of the item C1CCOC1 [tetrahydrofuran] + CCCC[N+]1(C)CCOCC1.N#C[C-](C#N)C#N in your answer.
output: 1.15
